Where do these numbers come from? They come from PubChem BioAssay (NCATS).

- Test system: AS120
- Method Summary: qHTS profiling for inhibitors of Plasmodium falciparum proliferation (AID 504749); also: nearly all actives have a fitted effect of over 60% in size
- Condition Parameters: P. falciparum in erythrocytes, SYBR Green DNA, 72 h; series mostly up to 28.7 µM
Inconclusive results are not listed. The source made the active and inactive calls. Calls follow the shape of the dose curve; as a rule, active = well fitted inhibition curve with a large enough effect; inconclusive = small, poorly fitted or top-dose-only effect; inactive = flat fitted curve, though single readings scatter.
Property Measured: Potency

These solved cases illustrate the format of a correct answer.
Cc1c(Cl)cccc1Nc1ccccc1C(=O)O
inactive
O=C(O)CC(O)C(=O)O (configuration not stated)
inactive
OCC(O)CN1CCN(c2ccccc2)CC1 (configuration not stated)
inactive
[O-][n+]1cccc(CO)c1
inactive
N[C@@H](CSCCCO)C(=O)O
inactive

Exercise: Consider the molecule `O=S(=O)(O)NC1CCCCC1` . State its measured Potency.
Key: inactive

Exercise: Consider the molecule `O=c1cc(CO)occ1O` . State its measured Potency.
Key: inactive

Exercise: Consider the molecule `Nc1ccc(S(=O)(=O)Nc2ccccc2)cc1` . State its measured Potency.
Key: inactive

Exercise: Consider the molecule `CCCCN1CCCC[C@H]1C(=O)Nc1c(C)cccc1C` . State its measured Potency.
Key: inactive

Exercise: Consider the molecule `Cc1cccc(C)c1NC(=O)CN(CC(=O)O)CC(=O)O` . State its measured Potency.
Key: inactive

---

- Method Summary: qHTS of pediatric cancer cell lines to identify multiple opportunities for drug repurposing: Primary screen for TC32 cells (AID 1347089); also: nearly all actives have a fitted effect of over 60% in size
- Condition Parameters: TC32 Ewing sarcoma viability, CellTiter-Glo luminescence, 48 h; series mostly up to 45.8 µM
Records with an inconclusive call do not appear. Calls of active or inactive are those of the source. Calls come from the whole dose curve; as a rule, active = well fitted cell-killing curve with a large enough effect; inconclusive = small, poorly fitted or top-dose-only effect; inactive = flat fitted curve, though single readings scatter.
Property Measured: activity change, negative = cytotoxic

These solved cases illustrate the format of a correct answer.
C[C@@H]1CN(c2c(F)c(F)c3c(=O)c(C(=O)O)cn(C4CC4)c3c2F)C[C@H](C)N1
inactive
COC(=O)C1=C(C)NC(C)=C(C(=O)OC)C1c1ccccc1[N+](=O)[O-]
inactive
CC/C=C(\C(=O)N[C@@H]1C(=O)N2C(C(=O)OCOC(=O)C(C)(C)C)=C(COC(N)=O)CS[C@H]12)c1csc(N)n1
inactive
[O-][n+]1cccc(CO)c1
inactive
CCCCN(CCCC)CCCOC(=O)c1ccc(N)cc1
inactive

Exercise: Consider the molecule `CO/N=C(\C(=O)N[C@@H]1C(=O)N2C(C(=O)O)=C(CSc3nc(=O)c(O)nn3C)CS[C@H]12)c1csc(N)n1` . State its measured activity change, negative = cytotoxic.
Key: inactive

Exercise: Consider the molecule `C[C@@H](O)[C@H](N)C(=O)O` . State its measured activity change, negative = cytotoxic.
Key: inactive

Exercise: Consider the molecule `COc1cc2[nH]c(=O)[nH]c(=O)c2cc1OC` . State its measured activity change, negative = cytotoxic.
Key: inactive

Exercise: Consider the molecule `Nc1ccc(S(=O)(=O)Nc2ccc(Cl)nn2)cc1` . State its measured activity change, negative = cytotoxic.
Key: inactive

Exercise: Consider the molecule `N[C@@H](CSCCCO)C(=O)O` . State its measured activity change, negative = cytotoxic.
Key: inactive

Exercise: Consider the molecule `CCC(=O)Nc1ccc(O)cc1` . State its measured activity change, negative = cytotoxic.
Key: inactive

---

- Method Summary: Cytometry Cell-Based qHTS for Inhibitors of the mTORC1 Signaling Pathway in MEF cells (AID 2668)
- Condition Parameters: mTORC1 pathway readout; series mostly up to 38.3 µM
Records with an inconclusive call do not appear. Activity calls are given as the source filed them. Calls follow the shape of the dose curve; as a rule, active = well fitted inhibition curve with a large enough effect; inconclusive = small, poorly fitted or top-dose-only effect; inactive = flat fitted curve, though single readings scatter.
// classify into Yes = active, No = inactive

Exercise: Given CC(C(O)c1ccc(O)cc1)N1CCC(Cc2ccccc2)CC1 (stereo unspecified) , state the outcome it received in this test.
Key: Yes

Exercise: Given `CC(C)NC[C@H](O)c1ccc(O)c(O)c1` , state the outcome it received in this test.
Key: No

Exercise: Given `CCN(CC)CCNC(=O)c1cc(Cl)c(N)cc1OC` , state the outcome it received in this test.
Key: No

Exercise: Given `Nc1ncnc2c1ncn2[C@@H]1O[C@H](CO)[C@@H](O)[C@H]1O` , state the outcome it received in this test.
Key: No

Exercise: Given `NC(=O)c1ncn([C@@H]2O[C@H](CO)[C@@H](O)[C@H]2O)n1` , state the outcome it received in this test.
Key: No

Exercise: Given CC(C)(C)c1onc(OCP(=O)(O)O)c1CC(N)C(=O)O (stereo unspecified) , state the outcome it received in this test.
Key: No

Exercise: Given `CC1=C(/C=C/C(C)=C/C=C/C(C)=C/C(=O)O)C(C)(C)CCC1` , state the outcome it received in this test.
Key: No

Exercise: Given `CN(C)CC[C@@H](c1ccc(Cl)cc1)c1ccccn1` , state the outcome it received in this test.
Key: No

---

- Method Summary: Cell Viability - LYMP2-026 (AID 989);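 also: cells exposed to compound for 24 h at 37 °C; nearly all actives have a fitted effect of over 50% in size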
- Condition Parameters: LYMP2-026 lymphoblastoid cell viability, qHTS; series mostly up to 92.2 µM
- Description: NIH Chemical Genomics Center [NCGC] NIH Molecular Libraries Screening Centers Network [MLSCN] National Institutes of Environmental Health Sciences [NIEHS] National Toxicology Program [NTP] We have developed a 1536-well cell-based assay for quantitative high throughput screening (qHTS) against a number of cell lines to determine in vitro cytotoxicity of small molecules. […] 8. Detection; Luminescence; Viewlux plate reader […]
Results filed as inconclusive are left out. Activity calls are given as the source filed them. The call rests on the fitted dose curve; in most records, active means well fitted cell-killing curve with a large enough effect; inconclusive means small, poorly fitted or top-dose-only effect; inactive means flat fitted curve, though single readings scatter.
// classify into active, inactive

[Cl][In]([Cl])[Cl]
inactive

Exercise: Given `CCCCCCCCCCCCOS(=O)(=O)O` , state the outcome it received in this test.
Key: inactive

Exercise: Given `Nc1ccc(S(=O)(=O)Nc2nccs2)cc1` , state the outcome it received in this test.
Key: inactive

Exercise: Given `NCCNCCNCCN` , state the outcome it received in this test.
Key: inactive

Exercise: Given `NC(=O)c1ncn([C@@H]2O[C@H](CO)[C@@H](O)[C@H]2O)n1` , state the outcome it received in this test.
Key: inactive

Exercise: Given `CC12CCC(CC1)C(C)(C)O2` , state the outcome it received in this test.
Key: inactive

Exercise: Given `CCCCOC(=O)c1ccc(O)cc1` , state the outcome it received in this test.
Key: inactive

Exercise: Given `Cc1c(O)cccc1C(=O)N[C@@H](CSc1ccccc1)[C@H](O)CN1C[C@H]2CCCC[C@H]2C[C@H]1C(=O)NC(C)(C)C` , state the outcome it received in this test.
Key: active

Exercise: Given `NC(=O)N/N=C/c1ccc([N+](=O)[O-])o1` , state the outcome it received in this test.
Key: inactive

Exercise: Given `Oc1cccc(O)c1` , state the outcome it received in this test.
Key: inactive

Exercise: Given `COc1ccccc1O` , state the outcome it received in this test.
Key: inactive

Exercise: Given `Cc1cc(CC(=O)O)n(C)c1C(=O)c1ccc(Cl)cc1` , state the outcome it received in this test.
Key: inactive

---

- Measured Target: Papain (Carica papaya)
- Method Summary: Primary qHTS assay for inhibitors of the protease papain (AID 1645873);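 also: papain turnover of Z-FR-AMC read as the AMC fluorescence gain over 10 min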
- Condition Parameters: papain Z-FR-AMC cleavage, AMC fluorescence; series mostly up to 49.8 µM
Records with an inconclusive call do not appear. Activity calls are given as the source filed them. The call rests on the fitted dose curve; in most records, active means well fitted inhibition curve with a large enough effect; inconclusive means small, poorly fitted or top-dose-only effect; inactive means no such curve, though single readings can be large or run the other way.
// classify into yes = active, no = inactive

Use these answered entries as a reference point.
CC1=C(CC(=O)O)c2cc(F)ccc2/C1=C\c1ccc(S(C)(=O)=O)cc1
no
CCN(CC)CCCC(C)Nc1c2ccc(Cl)cc2nc2ccc(OC)cc12 (centres undefined)
yes
NC(N)=NCCC[C@H](N)C(=O)O
no
CC(CN(C)C)CN1c2ccccc2CCc2ccccc21 (centres undefined)
no
CNC(=O)Oc1ccc2c(c1)[C@]1(C)CCN(C)[C@@H]1N2C
no

Exercise: Given `Cc1cc(N)c2ccccc2[n+]1CCCCCCCCCC[n+]1c(C)cc(N)c2ccccc21` , state the outcome it received in this test.
Key: yes

Exercise: Given `CCN(CC)CCOC(=O)C1(C2CCCCC2)CCCCC1` , state the outcome it received in this test.
Key: no

Exercise: Given `CCCn1cnc2c1c(=O)n(CCCCC(C)=O)c(=O)n2C` , state the outcome it received in this test.
Key: no

Exercise: Given `NC(=O)c1ncn([C@@H]2O[C@H](CO)[C@@H](O)[C@H]2O)n1` , state the outcome it received in this test.
Key: no

Exercise: Given CNCC(O)c1ccc(O)c(O)c1 (centres undefined) , state the outcome it received in this test.
Key: no

Exercise: Given CC1=C(CC(=O)O)c2cc(F)ccc2/C1=C\c1ccc(S(C)=O)cc1 (centres undefined) , state the outcome it received in this test.
Key: no

Exercise: Given `CC1=C(/C=C/C(C)=C/C=C/C(C)=C/C(=O)O)C(C)(C)CCC1` , state the outcome it received in this test.
Key: no

Exercise: Given `Nc1ncnc2c1ncn2[C@@H]1O[C@H](CO)[C@@H](O)[C@H]1O` , state the outcome it received in this test.
Key: no

Exercise: Given CC(C)(C(=O)O)c1ccc(C(O)CCCN2CCC(C(O)(c3ccccc3)c3ccccc3)CC2)cc1 (centres undefined) , state the outcome it received in this test.
Key: no

Exercise: Given `C#CCN(C)Cc1ccccc1` , state the outcome it received in this test.
Key: no

Exercise: Given `COC(=O)C1=C(C)NC(C)=C(C(=O)OC)C1c1ccccc1[N+](=O)[O-]` , state the outcome it received in this test.
Key: no

Exercise: Given CN(C)CCOC(C)(c1ccccc1)c1ccccn1 (centres undefined) , state the outcome it received in this test.
Key: no

Exercise: Given CNCCC(Oc1ccc(C(F)(F)F)cc1)c1ccccc1 (centres undefined) , state the outcome it received in this test.
Key: no

Exercise: Given `Nc1cc(=O)[nH]c(N)n1` , state the outcome it received in this test.
Key: no

Exercise: Given `CN(C)CC[C@@H](c1ccc(Cl)cc1)c1ccccn1` , state the outcome it received in this test.
Key: no

Exercise: Given `C[C@]12CC[C@@H]3c4ccc(O)cc4CC[C@H]3[C@@H]1CCC2=O` , state the outcome it received in this test.
Key: no
